Please go through the items and note down their melting point.

stdin: Dear colleague, I am looking for the recorded melting point of the following molecule: O=c1oc2ccccc2c(=O)n1-c1ccc(F)cc1F [compound 3d]
stdout: 182 to 183 °C

stdin: Dear colleague, I am looking for the recorded melting point of the following molecule: COc1ccc(C(=O)Nc2ccc(Cl)cc2F)c(OC)c1 [compound 2b]
stdout: 155 to 156 °C

stdin: Dear colleague, I am looking for the recorded melting point of the following molecule: O=C(Nc1ccc(Cl)cc1F)c1ccccc1OCc1ccc(F)cc1F [compound 1c]
stdout: 121 to 122 °C

stdin: Dear colleague, I am looking for the recorded melting point of the following molecule: COc1ccc(C(=O)Nc2ccc(F)cc2F)c(OC)c1 [compound 4b]
stdout: 138 to 139 °C

stdin: Dear colleague, I am looking for the recorded melting point of the following molecule: COc1ccc(C(=O)Nc2ccc(F)cc2F)c(OCc2ccc(F)cc2F)c1 [compound 4c]
stdout: 131 to 132 °C

Where these numbers come from: patent US9018203B2
